Molecular target: rat RabGGT (Rattus norvegicus, UniProt Q08602+Q08603)
Construct: purchased Calbiochem 345855; host or cells: Sf9/baculovirus
Sequence (Q08602 whole entry): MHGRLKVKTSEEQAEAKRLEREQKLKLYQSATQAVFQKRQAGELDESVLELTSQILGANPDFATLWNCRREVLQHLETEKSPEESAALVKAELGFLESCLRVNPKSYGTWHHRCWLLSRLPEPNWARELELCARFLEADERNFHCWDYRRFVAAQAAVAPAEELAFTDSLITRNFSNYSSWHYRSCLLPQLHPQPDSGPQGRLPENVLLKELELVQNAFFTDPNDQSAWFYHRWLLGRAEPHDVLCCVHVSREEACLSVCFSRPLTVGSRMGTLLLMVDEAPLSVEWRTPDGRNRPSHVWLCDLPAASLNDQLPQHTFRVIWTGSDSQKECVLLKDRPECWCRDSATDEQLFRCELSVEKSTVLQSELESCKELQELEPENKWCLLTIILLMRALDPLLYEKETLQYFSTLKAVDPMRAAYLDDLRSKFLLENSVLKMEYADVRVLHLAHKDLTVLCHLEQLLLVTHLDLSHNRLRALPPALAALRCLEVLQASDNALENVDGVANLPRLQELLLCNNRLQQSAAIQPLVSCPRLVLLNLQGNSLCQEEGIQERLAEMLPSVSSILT
Sequence (Q08603 whole entry): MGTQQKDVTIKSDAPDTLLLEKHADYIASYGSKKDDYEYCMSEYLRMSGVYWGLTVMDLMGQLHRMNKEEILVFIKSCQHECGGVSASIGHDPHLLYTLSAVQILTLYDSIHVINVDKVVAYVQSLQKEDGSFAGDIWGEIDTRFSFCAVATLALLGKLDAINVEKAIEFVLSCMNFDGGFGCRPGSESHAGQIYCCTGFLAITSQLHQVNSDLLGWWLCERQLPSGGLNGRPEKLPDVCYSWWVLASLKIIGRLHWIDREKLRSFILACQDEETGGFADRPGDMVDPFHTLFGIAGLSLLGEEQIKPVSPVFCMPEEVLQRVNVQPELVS
Test: RabGGT filter binding assay: transfer of (3H)geranylgeranyl from 3H-GGPP to recombinant Rab3A
Type: biochemical
Conditions: recombinant rat RabGGT, Rab3A, REP-1, 30 minute at 37° C.
pIC50: −log10 of the molar value.
READOUT_TYPE: pIC50

Below: 2 compounds and their reported pIC50.
Lab book: pIC50 of Cn1cnc(S(=O)(=O)N(Cc2ccsc2)C2Cc3cc(C#N)ccc3N(Cc3cncn3C)C2)c1 (stereo not shown) noted as 7.33

// Cn1cncc1CN1CC(NS(=O)(=O)c2ccccn2)Cc2cc(C#N)ccc21 (stereo not shown) : pIC50 value = 7.14

1 = Cn1cncc1CN1C[C@@H](Cc2ccccc2)N(S(=O)(=O)c2cccs2)Cc2cc(C#N)ccc21
2 = Cn1cc(S(=O)(=O)N(Cc2ccsc2)C2Cc3cc(C#N)ccc3N(Cc3cncn3C)C2)cn1 (stereo not shown)
input: # return whichever of 1 and 2 has the smaller pIC50 Answer with the label corresponding to your selection.
output: 2

# credit: patent US20040142888A1
